Attribute: activity remaining
# System: Aerobactin synthetase IucA (Klebsiella pneumoniae hvKP1)
# PROTOCOL_SUMMARY: Biochemical IucA enzyme inhibition primary screen of the Spectrum library (AID 1346200);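 also: 100% = wells without compound and 0% = wells lacking enzyme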
# SETUP_CONDITIONS: malachite green pyrophosphate, A620, at 8 µM, hits give low values
Please state the figure in %; there is no need to write the unit.

Query CC1=CCCC2C1(C)CCC(C)C2(C)CC/C(C)=C/C[n+]1cn(C)c2c(N)ncnc21 (configuration not stated) yields activity remaining of 115

The compound `CCCCc1oc2ccccc2c1C(=O)c1cc(I)c(OCCN(CC)CC)c(I)c1` showed activity remaining equal to 123

Summary for this compound, `COc1ccc(C2C(=O)c3ccccc3C2=O)cc1` : activity remaining is 119

The reported value for CN1CCc2cccc3c2C1Cc1ccc(O)c(O)c1-3 (configuration not stated) in terms of activity remaining is 87.4

For this compound ( `CN(C)CCc1c[nH]c2ccc(Cn3cncn3)cc12` ), measured activity remaining is 102

***
The recorded activity remaining for entry CC(C)c1c(O)ccc2c1CCC1C(C)(C)CCC[C@]21C (some centres not stated) equals 116

activity remaining in this record for C=C(C)C1(O)OC(=O)C=C1OC (configuration not stated) : 124

activity remaining reported for this compound `CC1(C)S[C@@H]2[C@H](NC(=O)[C@@H](N)c3ccc(O)cc3)C(=O)N2[C@H]1C(=O)O` : 99.8

Lookup result for `CC(=O)Oc1ccc(C(c2ccc(OC(C)=O)cc2)c2ccccn2)cc1` ; measured activity remaining: 82.7

compound `O=C1CC[C@@]2(O)[C@H]3Cc4ccc(O)c5c4C2(CCN3CC2CC2)[C@H]1O5` , activity remaining observed: 104

# activity remaining (compound: `O=C1c2ccccc2C(=O)c2ccccc21` ) is 119

Memo: CC(=O)Oc1cc2c(c(C)c1OC(C)=O)CC=C1[C@@]2(C)CC[C@@]2(C)C3C[C@](C)(C(=O)O)CC[C@]3(C)CC[C@]12C (some centres not stated) , reported activity remaining: 95.9

// CC(=O)O[C@]1(C(C)=O)CCC2C3C=C(C)C4=CC(=O)CCC4(C)C3CCC21C (some centres not stated) : activity remaining value = 98

Consider `CC(=O)Oc1cccc(C(=O)O)c1OC(C)=O` . Its measured activity remaining is 120

GET /value?item= `NNCc1ccccc1` &field=activity remaining returns 105

The recorded activity remaining for Nc1c2ccccc2nc2ccccc12 (tested in a mixture with another compound) is 112

Reported activity remaining of Nc1ccn(C2O[C@H](CO)[C@@H](O)[C@H]2O)c(=O)n1 (some centres not stated) : 101

Short answer for `CCCC(CCC)C(=O)O` : activity remaining was 108

Quick note, activity remaining for CCCCC(=O)O[C@]1(C(=O)CO)[C@@H](C)CC2C3CCC4=CC(=O)C=C[C@]4(C)[C@@]3(F)C(O)C[C@@]21C (some centres not stated) landed at 121

Lookup result for C=CCCCCCCCCCCCC(O)CC(O)CO (configuration not stated) (tested in a mixture with another compound) ; measured activity remaining: 85.4

So, `NCc1ccc(S(N)(=O)=O)cc1` ? Its activity remaining was 114

Looking up `Cc1cc(=O)c2c(O)c(C)c(O)cc2o1` , I see its activity remaining listed as 108
